Overview of recorded TGI for various compounds
# Test system: DMS 114 small cell lung
# assayRemarks: NCI tumour cell line growth inhibition, 48 h

Some solved entries appear below for comparison.
1) O=C1C=C(C2OC(CO)C(O)C2O)C(=O)N1 (stereo not drawn) = > 100 µM
2) CC1(c2cccc(C3CC4(CCC3=O)OCCCCO4)c2)OCCO1 (stereo not drawn) = > 100 µM
3) NC1=NN(c2ccccc2)C(=O)C1C(=O)CCC(=O)Nc1cccc(Cl)c1 (stereo not drawn) = > 100 µM
4) COc1ccc([C@@]2(O)c3c(ccc(O)c3OC)[C@H]2OC)c(OC)c1 = 75.9 µM

Now look at this entry.
So what's the measured TGI for this one? "O=C(NC(=O)c1c(F)cccc1F)Nc1cccc(Oc2ncc(Cl)cn2)c1"
> 100 µM

====

# Test system: 786-0 renal
# assayRemarks: NCI tumour cell line growth inhibition, 48 h
outcomeMeasure: TGI (µM)
Please reply with the bare figure in µM and do not write the unit itself.

These recorded examples may help you get a feel for the data.
1. O=S(Cc1ccccc1)c1nc2ccccc2nc1-c1cccs1 (stereo not given) = 23.4
2. O=C(NN1C(=O)C(Cl)C1c1ccc(Cl)cc1)c1c(Cl)c(Cl)c(Cl)c(Cl)c1-c1nc2ccccc2[nH]1 (stereo not given) = 47.4
3. CNC(=O)OCc1nc(SSC(C)(C)C)n(C)c1COC(=O)NC = 9.12
4. CC(C)(C)C1CCC(=O)/C(=C/CC2CC(=O)N(c3ccccc3)C(=O)C2)C1 (stereo not given) = 38.3

Next item in the queue.
Requested read-out: TGI. Entry: "CCOC(=O)c1sc(=S)n(-c2ccc(Cl)cc2)c1-n1cc(-c2ccccc2)c(C#N)c1N"
22.9

====

# System: MDA-N
# assayRemarks: NCI tumour cell line growth inhibition, 48 h
Below: a set of entries, each annotated with reported TGI.

# example entries with known answers
1) CC(=O)C(C(c1ccccc1)N1CCOCC1)N1CCOCC1 (stereo not given) = > 100 µM
2) N#Cc1c(-c2ccc(Cl)cc2)c2c(n(C3OC(CO)C(O)C(O)C3O)c1=S)CCCC2 (stereo not given) = > 100 µM
3) O=C1C2=Cc3ccccc3OC2(O)Oc2cc3ccccc3cc21 (stereo not given) = > 100 µM

Requested field: TGI. Item: CCCCCCCC(CC(=O)NC(CO)C(=O)NC(CO)CC(C)C)OC(=O)CC(CCCCCCC)OC(=O)CC(CCCCCCC)OC1OC(C)C(O)C(OC2OC(C)C(OC(C)=O)C(O)C2O)C1O (stereo not given)
14 µM

Name the reported TGI value associated with the compound CC1(C)C2CCC1(C)C(N/C(Sc1ccccc1)=C(/C(Cl)=C(Cl)Cl)[N+](=O)[O-])C2 (stereo not given)
27.6 µM

Fill blank: measured TGI of the compound "Cc1ccc(C(=O)N/N=C(\N=Nc2cccc([N+](=O)[O-])c2)c2ccc(N(CCC#N)CCC#N)cc2C)cc1" is ____.
> 78.4 µM

Name the recorded TGI for "C=CCn1c(N)c(C#N)c(C#N)c1CCC" .
> 100 µM

Can you share its TGI? I mean this compound: C=C(C)C1CC2(C)C(C)CC(O)CC2C(OC(=O)C=C(C)C)C1O (stereo not given)
> 100 µM

# get_value(readout='TGI', item= "COc1ccc(Cn2c(=O)c(OC)c(C)c3cc4ccccc4cc32)cc1" )
> 100 µM

Query: TGI; subject: CC(=O)SCCC(NC(=S)Nc1ccccc1)P(=O)(Oc1ccccc1)Oc1ccccc1 (stereo not given)
> 100 µM
